Tested on: MOLM-14 cells
procedure.text: Inhibitory concentrations (IC50, IC12.5) of kinase inhibitor panel for MOLM-14 cells
Format: cell-based, human
condition.details: concentration used for 48 h treatment
Reported IC12.5 is given for each of the following molecules.
Kindly provide the numeric value in nM only, without the unit symbol.

Known IC12.5 results, listed for orientation:
1) CCN(CC)CCNC(=O)c1c(C)[nH]c(/C=C2\C(=O)Nc3ccc(F)cc32)c1C [sunitinib] :: 3
2) Cc1nc(Nc2ncc(C(=O)Nc3c(C)cccc3Cl)s2)cc(N2CCN(CCO)CC2)n1 [dasatinib] :: 100
3) CO[C@H]1C[C@@H]2CC[C@@H](C)[C@@](O)(O2)C(=O)C(=O)N2CCCC[C@H]2C(=O)O[C@H]([C@H](C)C[C@@H]2CC[C@@H](O)[C@H](OC)C2)CC(=O)[C@H](C)/C=C(\C)[C@@H](O)[C@@H](OC)C(=O)[C@H](C)C[C@H](C)/C=C/C=C/C=C/1C [rapamycin] :: 5

QUERY: Reported IC12.5 for CNC(=O)c1ccccc1Sc1ccc2c(/C=C/c3ccccn3)n[nH]c2c1 [axitinib] : what is it?
RESULT: 25

QUERY: Reported IC12.5 for Cc1ccc(C(=O)Nc2ccc(CN3CCN(C)CC3)c(C(F)(F)F)c2)cc1C#Cc1cnc2cccnn12 [ponatinib] : what is it?
RESULT: 1

QUERY: Reported IC12.5 for CNC(=O)c1cc(Oc2ccc(NC(=O)Nc3ccc(Cl)c(C(F)(F)F)c3)cc2)ccn1 [sorafenib] : what is it?
RESULT: 2
